From: paper PMC3806051

# TESTED_TARGET: recombinant human His-tagged MDM2 protein (residues 1–118) (Homo sapiens)
# EXPERIMENT_DESCRIPTION: FP-based competitive protein binding assay
# ASSAY_SETUP: FP competitive binding to MDM2, incubation 15 min
Item-by-item account of pIC50
// pIC50 is dimensionless: -log10 of concentration (M)

Observe how each entry below is paired with its result.
INSERT INTO assay_data (compound, assay_value) VALUES
  ('CN(C)C(=O)[C@@H]1N[C@@H](CC(C)(C)C)[C@@]2(C(=O)Nc3cc(Cl)c(F)cc32)[C@H]1c1cccc(Cl)c1 [10b]', 6.08),
  ('CNC(=O)[C@@H]1N[C@@H](CC(C)(C)C)[C@@]2(C(=O)Nc3cc(Cl)ccc32)[C@H]1c1cccc(Cl)c1F', 7.59),
  ('CNC(=O)[C@@H]1N[C@@H](CC(C)(C)C)[C@@]2(C(=O)Nc3cc(Cl)c(F)cc32)[C@H]1c1cccc(Cl)c1 [11b]', 6.95);

Asked: If you can, please state the reported pIC50 value of CNC(=O)[C@@H]1N[C@H](CC(C)(C)C)[C@]2(C(=O)Nc3cc(Cl)ccc32)[C@H]1c1cccc(Cl)c1F .
Given back: 6.41
